# TARGET_OR_TEST_SYSTEM: JAK2 (Homo sapiens (Human), UniProt O60674)
# Sequence (O60674 whole entry): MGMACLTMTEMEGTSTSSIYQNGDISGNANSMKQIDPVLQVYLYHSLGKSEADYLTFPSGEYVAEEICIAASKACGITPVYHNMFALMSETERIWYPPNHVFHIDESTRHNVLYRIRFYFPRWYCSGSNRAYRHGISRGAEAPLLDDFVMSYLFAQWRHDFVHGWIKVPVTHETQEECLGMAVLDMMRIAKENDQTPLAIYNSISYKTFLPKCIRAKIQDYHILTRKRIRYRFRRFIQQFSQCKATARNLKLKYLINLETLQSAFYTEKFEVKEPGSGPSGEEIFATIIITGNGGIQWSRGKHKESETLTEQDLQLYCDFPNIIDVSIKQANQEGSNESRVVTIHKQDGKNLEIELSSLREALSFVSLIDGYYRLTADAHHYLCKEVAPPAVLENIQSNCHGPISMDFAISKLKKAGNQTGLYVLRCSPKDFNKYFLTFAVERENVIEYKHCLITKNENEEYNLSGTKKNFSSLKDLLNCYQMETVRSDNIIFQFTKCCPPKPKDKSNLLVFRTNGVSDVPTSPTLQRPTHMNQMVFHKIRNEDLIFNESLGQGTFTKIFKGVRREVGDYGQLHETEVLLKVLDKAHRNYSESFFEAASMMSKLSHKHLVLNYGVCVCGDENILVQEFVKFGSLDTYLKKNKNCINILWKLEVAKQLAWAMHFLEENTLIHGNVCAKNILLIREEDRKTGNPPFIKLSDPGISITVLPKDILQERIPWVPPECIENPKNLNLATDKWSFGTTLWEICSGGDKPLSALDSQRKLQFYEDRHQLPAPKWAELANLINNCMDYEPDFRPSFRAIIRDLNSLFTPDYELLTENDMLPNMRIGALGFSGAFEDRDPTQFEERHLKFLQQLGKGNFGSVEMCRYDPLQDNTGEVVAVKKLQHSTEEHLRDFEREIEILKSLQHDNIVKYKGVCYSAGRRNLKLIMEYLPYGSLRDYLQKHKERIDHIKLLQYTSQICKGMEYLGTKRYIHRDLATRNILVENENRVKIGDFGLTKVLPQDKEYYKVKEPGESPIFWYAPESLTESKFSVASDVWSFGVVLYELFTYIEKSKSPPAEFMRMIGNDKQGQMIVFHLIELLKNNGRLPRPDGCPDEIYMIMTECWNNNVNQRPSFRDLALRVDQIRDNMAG
# PROTOCOL_NOTES: JAK2 Z-Lyte biochemical assay
# EXPERIMENTAL_PARAMETERS: commercial JAK2 Z-Lyte assay from Invitrogen
Listed below: IC50 values for each entry.
Give the quantity in µM, number only.

In: Requested field: IC50. Item: CCN1CCN(Cc2cc(NC(=O)c3ccc(C)c(-c4ccc5nc(NC(=O)C6CC6)n(C)c5c4)c3)cc(C(F)(F)F)c2)CC1 [Compound I-25]
Out: 7.02

In: Requested field: IC50. Item: COCCN1CCN(Cc2cc(NC(=O)c3ccc(C)c(-c4ccc5nc(NC(=O)C6CC6)cn5n4)c3)cc(C(F)(F)F)c2)CC1 [Compound I-12]
Out: 1.82

Source listed as patent US20230391768A2.
